# testedSystem: HLA-DR molecule DRB1*0901 (human)
# testName: competition vs 125I probe, purified HLA
# key: entry, value: IC50
Write the number in µM without appending the unit.

GLRSLTTLSRALGAQ [EPO 101 analog GLRSLTTLSRALGAQ] | 2.23

Data request: Given the binder GLRSLTTLNRALGAQ [EPO 101 analog GLRSLTTLNRALGAQ] , write its reported IC50.
Data returned: 0.337
